Biological target: recombinant soluble homotrimeric HA of A/Anhui/1/05 (H5N1) (Influenza A virus A/Anhui/1/2005(H5N1))
Assay: trimeric HA microarray, transfection supernatant set 2
Conditions: remark: other sources report otherwise
Assign Trimeric HA Binding: RLU to each entry below.
Please respond with the number in RLU and leave the unit unwritten.

Give me measured Trimeric HA Binding: RLU, please, for this binder: TCN-527 (5086_C06) (antibody, V domains shown) VH: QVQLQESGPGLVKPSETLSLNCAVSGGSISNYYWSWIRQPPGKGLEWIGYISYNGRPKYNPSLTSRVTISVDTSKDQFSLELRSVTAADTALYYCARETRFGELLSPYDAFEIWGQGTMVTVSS VL: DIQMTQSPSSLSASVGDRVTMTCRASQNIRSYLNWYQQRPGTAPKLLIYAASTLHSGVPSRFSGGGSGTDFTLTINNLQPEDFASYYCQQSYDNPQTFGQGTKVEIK 15200

State its Trimeric HA Binding: RLU: TCN-523 (5248_A17) (antibody, V domains shown) VH: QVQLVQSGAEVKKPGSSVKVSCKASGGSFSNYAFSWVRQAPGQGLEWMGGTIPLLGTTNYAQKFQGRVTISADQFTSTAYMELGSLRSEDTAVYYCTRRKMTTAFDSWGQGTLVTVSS VL: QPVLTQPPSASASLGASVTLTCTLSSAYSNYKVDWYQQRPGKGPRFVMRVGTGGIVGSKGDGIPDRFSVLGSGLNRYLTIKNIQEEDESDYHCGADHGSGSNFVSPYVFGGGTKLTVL 139
